# Tested on: RAW-mLPCAT2 cells
# METHOD DESCRIPTION: cell-based assay: A23187-induced PAF production, PAF and lyso-PAF by LC-MS/MS
# Set-up: species or system mouse
# COND: 1 h pretreatment, 5 μM A23187 for 5 min
RECORDED ENDPOINT: lyso-PAF level

CC(C)OC(=O)c1ccc(N2C(=O)C(Cl)=C(Cl)C2=O)cc1	increased
CCCOC(=O)c1ccc(N2C(=O)C(Cl)=C(Cl)C2=O)cc1	increased

###

# MEASURED ON: hLPCAT2 (Homo sapiens)
# Construct: expressed in transfected cells; host or cells: CHO-S-PAFR cells (microsomal fraction), with or without mcPAF stimulation
# Sequence (Q7L5N7 1-544): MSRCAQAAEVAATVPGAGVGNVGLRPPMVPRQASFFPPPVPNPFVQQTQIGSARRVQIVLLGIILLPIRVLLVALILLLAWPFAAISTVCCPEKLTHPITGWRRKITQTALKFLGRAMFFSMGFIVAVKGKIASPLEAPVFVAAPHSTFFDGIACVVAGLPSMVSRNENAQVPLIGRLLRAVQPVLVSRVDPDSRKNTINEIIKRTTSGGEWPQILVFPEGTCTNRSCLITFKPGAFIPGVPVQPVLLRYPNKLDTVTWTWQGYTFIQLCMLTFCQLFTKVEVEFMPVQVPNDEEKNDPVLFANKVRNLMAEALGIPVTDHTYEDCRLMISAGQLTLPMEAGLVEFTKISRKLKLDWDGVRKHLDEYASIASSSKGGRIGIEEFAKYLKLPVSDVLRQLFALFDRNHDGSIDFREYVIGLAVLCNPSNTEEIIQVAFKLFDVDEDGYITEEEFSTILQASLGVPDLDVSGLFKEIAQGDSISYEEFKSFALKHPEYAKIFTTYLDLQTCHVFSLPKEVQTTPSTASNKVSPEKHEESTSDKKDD
# METHOD DESCRIPTION: lyso-PAFAT (acetyltransferase) activity assay, PAF product by LC-MS/MS
# Assay type: biochemical
# COND: 0, 0.2, 0.6, 2, 6 and 20 μM of each compound in triplicate; LC-MS/MS; read-out: IC50, product PAF, enzyme hLPCAT2
RECORDED ENDPOINT: pIC50
One number for each entry, as −log10 of the molar value.

CCN1C(=O)C=CC1=O [N-ethylmaleimide (NEM), N-ethylmaleimide, reference compound]	3.97
CC(C)OC(=O)c1ccc(N2C(=O)C(Cl)=C(Cl)C2=O)cc1	6.33
CC(C)OC(=O)c1ccc(N2C(=O)C(Cl)=C(Nc3ccccc3O)C2=O)cc1	5.26
O=C1C(Cl)=C(N2CCOCC2)C(=O)N1c1ccc(Oc2ccccc2)cc1	5.66

Please examine the following record next.
Could you tell me which pIC50 is on file for `COC(=O)c1ccc(N2C(=O)C(Cl)=C(Cl)C2=O)cc1` ? 5.46

###

# MEASURED ON: hLPCAT2 (Homo sapiens, UniProt Q7L5N7)
# Construct: expressed in transfected cells; host or cells: CHO-S-PAFR cells (microsomal fraction), with or without mcPAF stimulation
# METHOD DESCRIPTION: acyltransferase activity assay, 16:0/20:4 alkyl-PC product by LC-MS/MS
# Type: biochemical
# COND: 0, 0.2, 0.6, 2, 6 and 20 μM of each compound in triplicate; LC-MS/MS; read-out: IC50, product Alkyl-PC (16:0/20:4 alkyl-PC), enzyme hLPCAT2
Define the label as Condition met when IC50 is strictly less than 10 µM and as Condition not met in all remaining cases.

Reference set, count: 6
CCCOC(=O)c1ccc(N2C(=O)C(Cl)=C(Cl)C2=O)cc1 [TSI-10]	Condition met
CCN1C(=O)C=CC1=O [N-ethylmaleimide (NEM), N-ethylmaleimide, reference compound]	Condition not met
CC(C)OC(=O)c1ccc(N2C(=O)C(Cl)=C(Cl)C2=O)cc1 [TSI-01]	Condition met
COc1ccc(N2C(=O)C(Cl)=C(Oc3ccccc3OC)C2=O)cc1 [TSI-05]	Condition met
COC(=O)c1ccc(N2C(=O)C(Cl)=C(Cl)C2=O)cc1 [TSI-09]	Condition not met
CCCCOC(=O)c1ccc(N2C(=O)C(Cl)=C(Cl)C2=O)cc1 [TSI-11]	Condition met

Is it true that IC50 reported for CC(C)OC(=O)c1ccc(N2C(=O)C(Cl)=C(Nc3ccccc3O)C2=O)cc1 [TSI-07] is less than 10 µM? Condition not met

Now the same for COC(=O)c1ccc(N2C(=O)C(Cl)=C(Nc3ccc(S(N)(=O)=O)cc3)C2=O)cc1 [TSI-08] Condition not met

Now the same for O=C1C(Cl)=C(N2CCOCC2)C(=O)N1c1ccc(Oc2ccccc2)cc1 [TSI-02] Condition met

Now the same for COc1ccc(Cl)cc1N1C(=O)C(Cl)=C(Nc2ccccc2O)C1=O [TSI-04] Condition not met

Now the same for COc1ccc(Cl)cc1N1C(=O)C(Cl)=C(Cl)C1=O [TSI-03] Condition not met

Now the same for CC(C)OC(=O)c1ccc(N2C(=O)C(Cl)=C(N3CCOCC3)C2=O)cc1 [TSI-06] Condition not met
